Readings of growth for the listed molecules
Test system: HOP-62 NSCLC
assay name: NCI-60 one-dose screen, 48 h (100 = growth as untreated, 0 = no growth, -100 = all killed)
details: 10 µM unless noted
About 83,000 compounds went through this panel and 20% of them were active in at least one assay; those are over-represented in the sample as a whole. Calls of active or inactive are those of the source. How the source made its calls: active means growth percent below 10; inactive means the rest.
measured endpoint: growth

>>> observed("Cc1cc(=NO)cc(C)n1O")
"100% (inactive)"
>>> observed("O=COCCCc1ccccc1")
"86.4% (inactive)"
>>> observed("CC(=O)/C(N=Nc1ccc(S(=O)(=O)c2ccc(N=N/C(C(C)=O)=C(/C)O)cc2)cc1)=C(\\C)O")
"103% (inactive)"
>>> observed("CC(C)=NOC(C)C(=O)O (configuration not stated)")
"110% (inactive)"
>>> observed("Cc1cc(Cl)nc(Nc2ccccc2)n1")
"62.9% (inactive)"
>>> observed("CC(C)(C)OC(=O)NCCc1ccc(N)cc1")
"96.1% (inactive)"
>>> observed("O=C1C=CC(n2cc(F)c(=O)[nH]c2=O)O1 (configuration not stated)")
"79.5% (inactive)"
>>> observed("N#Cc1c[nH]n2ccnc12")
"86% (inactive)"
>>> observed("Nc1c(Cl)cc2c(c1Br)C(=O)c1ccccc1C2=O")
"101% (inactive)"
>>> observed("CC(C)(C)OC(=O)c1ccc(NCc2cc(O)ccc2O)cc1")
"45.1% (inactive)"
>>> observed("N#Cc1c(N)nc2c(c(-c3ccc(Cl)cc3)nn2-c2ccccc2)c1C#N")
"96.1% [100 µM] (inactive)"
>>> observed("CCOC(=O)c1ccc(C(=N)N)cc1")
"108% (inactive)"
>>> observed("Cc1c(O)nc(N)[nH]c1=O")
"99.7% (inactive)"
>>> observed("CCCCCCC(C)CC1=C(O)c2ccccc2C(=O)C1=O (configuration not stated)")
"59.3% (inactive)"
>>> observed("C/C(CC(C)C)=N/NC(N)=S")
"99.4% (inactive)"
>>> observed("CN(C)C(=S)N(C)C")
"95.6% (inactive)"
>>> observed("Cc1ccc([N+](=O)[O-])cc1Br")
"89.4% (inactive)"
>>> observed("NNc1ncnc2cccc(Cl)c12")
"95.3% (inactive)"
>>> observed("CCN(CC)C(=S)SCCO")
"104% (inactive)"
>>> observed("OCc1cccc(F)c1")
"100% (inactive)"
>>> observed("CCOc1ccc(/C=C\\C(=O)O)cc1")
"135% (inactive)"
>>> observed("O=C1C=CC(=O)N1Cc1ccco1")
"94.7% (inactive)"
>>> observed("CCCCNC(=O)c1ccccc1C")
"91.1% (inactive)"
>>> observed("C/C=C/C(=O)OCCCCCCCCCCCC")
"102% (inactive)"
>>> observed("CCC(C)(O)CCC(C)(O)CC (configuration not stated)")
"93.5% (inactive)"
>>> observed("CCOC(=O)CN1CCC(C(=O)OCC)CC1")
"98.9% (inactive)"
>>> observed("Oc1ccc(O)c(-c2ccccc2)c1")
"46.6% (inactive)"
>>> observed("O=C(O)COc1ccccc1F")
"117% (inactive)"
>>> observed("C#CCOC(=O)C(N)CS (configuration not stated)")
"93.2% (inactive)"
>>> observed("O=C(O)Cc1cc(=O)[nH]n(-c2ccccc2)c1=O")
"106% (inactive)"
>>> observed("CCCC(=O)OCC(COC(=O)CCC)OC(=O)CCC")
"98.6% (inactive)"
>>> observed("COC(=O)CCOc1ccccc1")
"101% (inactive)"
>>> observed("COC(=O)c1nc(N)nc(C(=O)OC)c1C(=O)c1ccc(F)cc1")
"113% (inactive)"
>>> observed("C/C(=C\\c1ccccc1)C(O)C(=O)c1nc2ccc([N+](=O)[O-])cc2[nH]c1=O (configuration not stated)")
"81.4% (inactive)"
>>> observed("COc1ccc(CCO)cc1")
"96.2% (inactive)"
>>> observed("Cc1cnc(N)s1")
"78.3% (inactive)"
>>> observed("CCN(C)c1ccccc1")
"108% (inactive)"
>>> observed("NC(=O)Cc1nc(O)cc(=O)[nH]1")
"81.6% (inactive)"
>>> observed("O=[N+]([O-])c1ccc(N/N=C/C2CCCCCC2)c([N+](=O)[O-])c1")
"97% (inactive)"
>>> observed("NNC(=O)Nc1ccccc1")
"103% (inactive)"
>>> observed("CCCCC/C(C)=N\\NC(N)=S")
"89.8% (inactive)"
>>> observed("CCOC(=O)c1ccncc1")
"98.5% (inactive)"
>>> observed("CC1CCC(=O)N1c1ccc(N)cc1 (configuration not stated)")
"86.3% (inactive)"
>>> observed("CC(O)CCNC(c1ccccc1)C(O)c1ccccc1 (configuration not stated)")
"104% (inactive)"
>>> observed("CN(C)CC(CN(C)C)C(O)c1ccccc1 (configuration not stated)")
"91.4% (inactive)"
>>> observed("O=C(O)c1ccc2c3ccc(C(=O)O)c4c(C(=O)O)ccc(c5ccc(C(=O)O)c1c25)c43")
"92.4% (inactive)"
>>> observed("OC1CCCN(Cc2ccccc2)C1 (configuration not stated)")
"107% (inactive)"

====

System: NCI-H23 lung
assay name: NCI-60 one-dose screen, 48 h (100 = growth as untreated, 0 = no growth, -100 = all killed)
details: 10 µM unless noted
This is part of a sample that, as a whole, favours compounds with a hit. Of some 83,000 tested, about 20% had one in any assay. The source made the active and inactive calls. Rule for the calls: active = growth percent below 10; inactive = the rest.
Readings of growth for the listed molecules
measured endpoint: growth

>>> observed("CCNCc1ccccc1")
"91.4% (inactive)"
>>> observed("Nc1ccccc1SC1CC(=O)N(c2ccc(I)cc2)C1=O (stereo not drawn)")
"89.8% (inactive)"
>>> observed("O=C(O)c1ccc2c3ccc(C(=O)O)c4c(C(=O)O)ccc(c5ccc(C(=O)O)c1c25)c43")
"87.8% (inactive)"

====

Tested on: NCI-H522 lung
assay name: NCI-60 one-dose screen, 48 h (100 = growth as untreated, 0 = no growth, -100 = all killed)
details: 10 µM unless noted
Compounds without any hit were thinned out: in the full panel of roughly 83,000, 20% have a hit.
measured endpoint: growth (%)

>>> observed("COc1ccc(-n2[nH]c3c(cnc4ccccc43)c2=O)cc1")
89.2
>>> observed("CCOC(=O)c1ccc(C(=N)N)cc1")
102
>>> observed("Cc1ccc(S(=O)(=O)n2ccnc2)cc1")
95.8
>>> observed("COc1ccc(S(=O)(=O)c2ccc(F)cc2)cc1")
83.3
>>> observed("COc1ccc(/C=N/Nc2nc3ccccc3s2)cc1")
89
>>> observed("CCCCC/C(C)=N\\NC(N)=S")
89.3
>>> observed("Cc1cc(=NO)cc(C)n1O")
120
>>> observed("Cc1c(O)nc(N)[nH]c1=O")
99.5
>>> observed("CN(C)CC(CN(C)C)C(O)c1ccccc1 (configuration not stated)")
76.4
>>> observed("O=C(c1ccncc1)c1c(Cc2ccccc2)ccc2ccccc12")
27.8
>>> observed("OCc1cccc(F)c1")
67.8
>>> observed("O=C1C2=C(Nc3cc(Cl)ccc3N2)OC1c1c[nH]c2ccc(COc3ccccc3)cc12 (configuration not stated)")
54.8

====

Readings of growth for the listed molecules
System: NCI-H322M lung
assay name: NCI-60 one-dose screen, 48 h (100 = growth as untreated, 0 = no growth, -100 = all killed)
details: 10 µM unless noted
About 83,000 compounds went through this panel and 20% of them were active in at least one assay; those are over-represented in the sample as a whole.
measured endpoint: growth (%)

>>> observed("COCCNC(C)=O")
108
>>> observed("CN(C=O)c1ccccc1")
98.5
>>> observed("CC1(C)CC(=O)NC1=O")
94.2
>>> observed("C/C(CC(C)C)=N/NC(N)=S")
96.9
>>> observed("CCc1ccccc1-n1[nH]c(C)c(C=N)c1=O")
106
>>> observed("Cc1ccc([N+](=O)[O-])cc1Br")
111
>>> observed("Cc1ccc(NC(=S)N/C=C(\\c2ccccc2)S(=O)Cc2ccccc2)c(C)c1 (centres undefined)")
94.8
>>> observed("COC(=O)c1nc(=S)[nH]c(C(=O)OC)c1C(=O)c1ccccc1")
106
>>> observed("CSc1nc(N)c(N)c(N)n1")
106

====

Readings of growth for the listed molecules
System: OVCAR-5 ovarian
assay name: NCI-60 one-dose screen, 48 h (100 = growth as untreated, 0 = no growth, -100 = all killed)
details: 10 µM unless noted
About 83,000 compounds went through this panel and 20% of them were active in at least one assay; those are over-represented in the sample as a whole.
measured endpoint: growth (%)

>>> observed("CCCCC/C(C)=N\\NC(N)=S")
103
>>> observed("Nc1ccc(Cl)c(S(=O)(=O)O)c1")
95.7
>>> observed("Cc1ccc([N+](=O)[O-])cc1Br")
89.9
>>> observed("Cc1cc(=NO)cc(C)n1O")
117
>>> observed("CCCC(=O)OCC(COC(=O)CCC)OC(=O)CCC")
102
>>> observed("Cc1cc(Cl)nc(Nc2ccccc2)n1")
103
>>> observed("COCCNC(C)=O")
94.9
>>> observed("CCOP(C)(=O)/C(Cc1ccc(OC)c(OC)c1)=N\\O (stereo unspecified)")
96.6
>>> observed("OCCCc1ccccc1")
97
>>> observed("CC(=O)c1cc2ccccc2o1")
87.7
>>> observed("O=C(N=C1C(=O)C2(CCCCC2)C2(N=C(c3ccccc3)OC2=O)C12CCCCC2)c1ccccc1 (stereo unspecified)")
85.8
>>> observed("COc1cc(Cl)ccc1C")
71.1
>>> observed("O=C(O)Cc1cc(=O)[nH]n(-c2ccccc2)c1=O")
100
>>> observed("OCc1cccc(F)c1")
70.7
>>> observed("Cc1cc2ccccc2c2cc3ccccc3cc12")
86.9
>>> observed("CCN(CC)C(CC(=O)c1ccccc1)C(=O)c1ccccc1 (stereo unspecified)")
113
>>> observed("OCCS")
104
>>> observed("CC1CCC(=O)N1c1ccc(N)cc1 (stereo unspecified)")
99.9
>>> observed("Cc1cnc(N)s1")
90.7
>>> observed("ON=C(C1CCCCC1)C1CCCCC1")
89.5
>>> observed("CCn1c2ccc(N(C)C)cc2c2cc(N(C)C)ccc21")
99.6
